- targetSystem: T1, CBX2 chromodomain (CBX2 ChD), N-terminal His6-tagged recombinant protein (UniProt Q14781 9-66, limits assumed)
- T1 construct: domain: chromodomain; Expressed in E. coli and purified on Ni-NTA; not shown: N-terminal His6 tag
- T1 sequence (looked up): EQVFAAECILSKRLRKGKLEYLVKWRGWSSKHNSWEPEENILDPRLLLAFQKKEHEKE
- assayProcedure: competitive fluorescence polarization (FP) assay, displacement of the FITC-labelled probe
Square brackets hold non-standard residues; d marks the D form. * marks the point of attachment. Isoxazole3carbonyl(5-Me) = Cc1cc(C(=O)*)no1; Tyr(3-Cl) = N[C@@H](Cc1ccc(O)c(Cl)c1)C(=O)O; Lys(Me3) = C[N+](C)(C)CCCC[C@H](N)C(=O)O
metric: IC50 (µM)
Response body: numeric value in µM, unit text excluded.

Report measured IC50; entry is {Isoxazole3carbonyl(5-Me)}-[Tyr(3-Cl)]VI[Lys(Me3)]S-NH2 (Final PSL1 ligand with combined synthons) [KED97]
21
